The measured values listed here are drawn from PubChem BioAssay.

Please respond with reported composite z-score for every item in the list.
Target: Pro-neuregulin-1, membrane-bound isoform (Homo sapiens) (UniProt Q02297)
Sequence (Q02297 whole entry, looked up, canonical isoform): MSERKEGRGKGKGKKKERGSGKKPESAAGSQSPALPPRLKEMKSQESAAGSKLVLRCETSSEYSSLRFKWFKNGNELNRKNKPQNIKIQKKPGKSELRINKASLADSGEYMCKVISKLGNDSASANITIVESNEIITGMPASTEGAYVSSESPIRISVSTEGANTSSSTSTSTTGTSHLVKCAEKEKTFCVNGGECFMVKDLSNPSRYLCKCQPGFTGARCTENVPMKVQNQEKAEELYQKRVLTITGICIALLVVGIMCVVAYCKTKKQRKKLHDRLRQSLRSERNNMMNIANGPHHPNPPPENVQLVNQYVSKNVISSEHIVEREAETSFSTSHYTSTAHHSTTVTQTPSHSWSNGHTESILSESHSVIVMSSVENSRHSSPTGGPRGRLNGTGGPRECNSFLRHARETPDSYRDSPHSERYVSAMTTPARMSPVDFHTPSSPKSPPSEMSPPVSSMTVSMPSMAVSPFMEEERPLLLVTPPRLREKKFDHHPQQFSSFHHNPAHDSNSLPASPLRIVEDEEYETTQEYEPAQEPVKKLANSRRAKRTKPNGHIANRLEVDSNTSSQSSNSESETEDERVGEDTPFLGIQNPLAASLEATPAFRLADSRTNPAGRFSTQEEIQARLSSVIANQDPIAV
Test: NRG1 binders on small-molecule microarrays, primary screen, psychiatric disease protein project, biochemical, small-molecule microarray, fluorescence 635/667 (AID 1075);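 note: score combines 667 nm spot fluorescence with signal to noise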
Conditions: NRG1 binding, 635 nm fluorescence, higher = more signal

Check out these entries, answers already filled in.
# compound, quantity_name, reported_value
measured = [
    ("Cc1ccc(N2C(=O)c3ccccc3[C@@H](C(=O)NC3CC3)[C@@H]2c2ccc(CO)cc2)nc1", "composite z-score", -1.14),
    ("NC(=O)N1C(=O)C2C(C1=O)C1C=C(c3ccc(CO)cc3)C2C(c2cccs2)N1Cc1cccc(OC(F)(F)F)c1 (stereo unspecified)", "composite z-score", 1.3),
    ("COC(=O)[C@@]1(Cc2ccc(OC)cc2)[C@H]2c3cc(C(=O)N4CCCC4)n(Cc4ccc(C)c(F)c4F)c3C[C@H]2CN1C(=O)c1ccccc1", "composite z-score", 1.65),
]

Hello, I would appreciate it if you could give composite z-score for each entry below.
1. C=CCOC(=O)[C@@H]1[C@H]2C(=O)O[C@H](c3ccccc3)[C@H](c3ccccc3)N2[C@H](c2ccc(OCCOC(=O)[C@@H]3C[C@@H]4C(=O)NCC(=O)N4[C@@H]3c3ccc(O)cc3)cc2)[C@@]12C(=O)Nc1ccc(I)cc12
2. C=CCOC(=O)[C@H]1[C@@H]2C(=O)O[C@@H](c3ccccc3)[C@@H](c3ccccc3)N2[C@@H](c2ccc(OCCOC(=O)[C@H]3C[C@H]4C(=O)N[C@@H](CCCC[N+](C)(C)C)C(=O)N4[C@H]3c3ccc(O)cc3)cc2)[C@]12C(=O)Nc1ccc(I)cc12

stdout:
1.04
2.05

stdin: Lab request: please report composite z-score under test system Pro-neuregulin-1, membrane-bound isoform (Homo sapiens) (UniProt Q02297) for `CC(C)=CCN[C@H](CO)c1ccccc1`
stdout: -0.419
